These data points were gathered from PubChem BioAssay (NCI).

Tested on: NCI-H522 lung
procedure-summary: NCI-60 one-dose screen, 48 h
experimental-parameters: 10 µM unless noted
The panel holds about 83,000 compounds, 20% with a hit somewhere; the sample as a whole holds those more often. Activity calls are given as the source filed them. Rule for the calls: active = growth percent below 10; inactive = the rest.
Outcome codes: active, inactive

molecule	label-class
COc1cc(/C=C2\CCCC3=C2N=C2SC(C)=NN2C3c2cc(OC)c(OC)c(OC)c2)cc(OC)c1OC (configuration not stated)	inactive
N#CC1=C(N)n2nc(-c3ccncc3)nc2NC1c1cccc2ccccc12 (configuration not stated)	inactive
O=C(CNc1ccc(Cl)cc1)Nc1ccc(-c2nc3ccccc3s2)cc1	active
O=C(/C=C/CN1CCOCC1)Nc1cc2c(Nc3cccc(Cl)c3F)ncnc2cc1OCCOC(F)F	active
O=C(OCCCCOC(=O)n1cnc2ccccc21)n1cnc2ccccc21	inactive
CC(C)(C)OC(=O)N[C@@H](Cc1ccccc1)C(=O)N(Cc1ccccc1)C1(C(=O)NCc2ccccc2)CCN(Cc2ccccc2)CC1	inactive
C=CCc1cc(Cl)cc2c(OC(C)=O)c(C(C)=O)c(-c3ccccc3)nc12	inactive
